assay: qHTS for induction of synthetic lethality in tumor cells producing 2HG: qHTS for the HT-1080-NT fibrosarcoma cell line; conditions: HT-1080-NT fibrosarcoma viability, CellTiter-Glo ATP luminescence, 48 h; series mostly up to 46.1 µM;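 further: NT is the 2HG producing partner of a matched IDH1 knockdown line; nearly all actives have a fitted effect of over 55% in size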
The whole screen tested about 360,000 compounds, of which about 6,000 (1.7%) were called active. Not shown: some 8% with an inconclusive outcome. The call rests on the fitted dose curve; in most records, active means well fitted cell-killing curve with a large enough effect; inconclusive means small, poorly fitted or top-dose-only effect, or effect the other way; inactive means flat fitted curve, though single readings scatter. For the sample, actives were picked, then their nearest neighbours and some compounds at random.
The categories you may choose from are t = active, f = inactive

Past entries and their recorded results:
>>> label_class("COc1ccc(NC(=O)CN(C)C(=O)c2ccc(COc3ccccc3)o2)cc1")
"f"
>>> label_class("O=C(O)c1ccc(NC(=O)c2ccc(COc3ccc(Cl)cc3)o2)cc1")
"f"
>>> label_class("COc1ccc(NC(=O)CN2C(=O)NC(C)(c3ccccc3)C2=O)cn1 (stereo not given)")
"f"
>>> label_class("CCc1nc2c(OCCOc3ccccc3)cccn2c1N(C)C(=O)c1ccccc1F")
"f"

In the following, a different molecule is considered.
Q: Outcome? `Cc1cc(OCc2ccc(C(=O)Nc3ccc(C(=O)O)cc3)o2)ccc1Cl`
Ans: t
